- target-desc: T1, monkey macaca fascicularis PRLR construct with an HA tag on HEK293/mfPRLR cells (macaca fascicularis, UniProt A0A2K5WXK1 25-619)
- T1 construct: stably transfected into HEK293
- T1 sequence: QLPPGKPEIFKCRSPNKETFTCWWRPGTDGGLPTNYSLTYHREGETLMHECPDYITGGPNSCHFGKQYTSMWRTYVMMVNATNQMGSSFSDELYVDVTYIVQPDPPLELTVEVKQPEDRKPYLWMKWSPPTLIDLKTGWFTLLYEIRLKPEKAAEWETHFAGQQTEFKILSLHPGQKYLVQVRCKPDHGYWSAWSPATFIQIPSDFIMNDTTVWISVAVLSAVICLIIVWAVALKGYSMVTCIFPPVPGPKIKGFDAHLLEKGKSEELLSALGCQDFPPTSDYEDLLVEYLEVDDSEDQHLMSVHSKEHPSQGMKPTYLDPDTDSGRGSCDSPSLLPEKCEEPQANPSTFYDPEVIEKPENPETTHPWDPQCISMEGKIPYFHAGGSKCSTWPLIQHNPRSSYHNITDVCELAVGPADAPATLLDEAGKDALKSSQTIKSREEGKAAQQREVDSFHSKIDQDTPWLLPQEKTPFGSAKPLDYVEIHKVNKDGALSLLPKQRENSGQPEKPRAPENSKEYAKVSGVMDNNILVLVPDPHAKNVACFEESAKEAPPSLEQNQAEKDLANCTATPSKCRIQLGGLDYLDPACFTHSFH
- experiment-summary: FACS on HEK293/mfPRLR cells
observable: FACS Cell Binding (Fold Above Background) (fold)
Give bare numbers, in fold.

Observe how each entry below is paired with its result.
H1H6762P (antibody, human IgG1, V domains shown, human IgG1 Fc (H1H)) VH: QVQLVESGGGVVQPGRSLRLSCAASGFTFSHYGMVWVRQPPGKGLEWVALISFDGTTKYYADSVKGRFTISRDNSKNTLYLQMNSLRAEDTAVYFCVGAIAAAAFDLWGRGTLVTVSS VL: EIVMTQSPATLSVSPGERATLSCRASQSVSSDLAWYQQKPGQAPRLLIYSASARATGIPARFTGSGSGTDFTLTISSLQSEDFAVYYCQQYNNWPMYTFGQGTKLEIK	26
H1H6800P (antibody, human IgG1, V domains shown, human IgG1 Fc (H1H)) VH: EVQLVESGGGLVQPGRSLRLSCAASGFTFDGYAMHWVRQGPGKGLEWVSGISWYSDTLGYADSVKGRFTISRDNAKNSLYLQMNSLRTEDTAFYYCAKISSSGWAFDYWGQGTLVTVSS VL: EIVLTQSPGTLSLSPGERATLSCRASHSVSSAYLAWYQQKPGQTPRLLIYGTSSRATGIPDRFSGSGSGTDFTLTISRLEPEDFAVYYCQQYGSSPLFTFGPGTKVDIK	29

Value sought for every listed binder: FACS Cell Binding (Fold Above Background).
1. H1H6804P (antibody, human IgG1, V domains shown, human IgG1 Fc (H1H)) VH: QVTLKESGPVLVKPTQTLSLTCTVSGFSLSDAGMGVSWIRQPPGKALEWLAHIFSNDGKSYSTSLKSRLTISKDTSKRQVVLTMTNMDPVDTATYYCARIRTGTYSLYLDYWGQGTLVTVSS VL: DIQMTQSPSSLSASVGDRVTITCRASQSINSYLNWYQQKPGKAPKLLLYFASSLQSGVPSRFSGSGSGTDFTLTISSLQPEDFASYYCQESYSTPWTFGQGTKVEIK
2. H1H6958N2 (antibody, human IgG1, V domains shown, also called H2M6958N2) VH: QVQLVESGGGVVQPGRSLRLSCGASGFTFRNYGMQWVRQGPGKGLEWVTLISFDGNDKYYADSVKGRFTISRDNSKNTLFLQMNSLRTEDTAVYYCARGGDFDYWGQGTLVTVSS VL: DIQMTQSPSSLSASVGDRVTITCRASQDIRKDLGWYQQKPGKAPKRLIYAASSLHSGVPSRFSGSGSGTEFTLTISSLQPEDFATYYCLQHNSYPMYTFGQGTKLEIK
3. H1H6966N (antibody, human IgG1, V domains shown, also called H2M6966N) VH: QVQLVQSGAEVQKPGASVKVSCKVSGYTLTALSIHWVRQAPGKGLEWMGNFDPGDGETIHAQKFQGRVTMTGDTSTDTAYMELSSLRSEDTAVYYCVGVTFDYWGQGTLVTVSS VL: EIVMTQSPATLSVSPGERATLSCRASQSVASNLAWYQQKPGQAPRLLLYGASTRATGIPARFSGSGSGTEFTLTISSLQSEDFALYYCQHYNNWPLTFGGGTKVEIK

Output:
1: 29; 2: 30; 3: 18
